MEASURE_NAME: melting point

[Q] Requested field: melting point. Item: O=C1Nc2cc(NC(=O)N3CCN(C4CC4)C3=O)ccc2/C1=C/c1ccc[nH]1
[A] 284 to 289 °C (dec.)

---
[Q] Requested field: melting point. Item: CN(C)c1ccc(N2CCN(C(=O)Nc3ccc4c(c3)NC(=O)/C4=C\c3ccc[nH]3)C2=O)cc1
[A] 279 to 284 °C (dec.)

[Q] Requested field: melting point. Item: O=C(NC(=O)c1ccccc1F)Nc1ccc2c(c1)NC(=O)/C2=C\c1ccc[nH]1
[A] 276 to 281 °C (dec.)

[Q] Requested field: melting point. Item: O=C1Nc2cc(NC(=O)c3cccn(CCO)c3=O)ccc2/C1=C/c1ccc[nH]1
[A] 298 °C (dec.)

[Q] Requested field: melting point. Item: COc1ccc(/C=C2/C(=O)Nc3cc(NC(=O)NC(=O)c4ccc(OC)cc4)ccc32)cc1
[A] 274 to 279 °C (dec.)

[Q] Requested field: melting point. Item: O=C1Nc2cc(NC(=O)c3c[nH]cc(-c4cccc(Cl)c4)c3=O)ccc2/C1=C/c1ccc[nH]1
[A] > 300 °C

[Q] Requested field: melting point. Item: Cc1[nH]c(/C=C2\C(=O)Nc3cc(NC(=O)c4cccn(C)c4=O)ccc32)c(C)c1C(=O)O
[A] > 300 °C

[Q] Requested field: melting point. Item: O=C1Nc2cc(NC(=O)c3c[nH]cc(-c4ccc(F)cc4F)c3=O)ccc2/C1=C/c1ccc[nH]1
[A] > 300 °C

[Q] Requested field: melting point. Item: O=C1Nc2cc(NC(=O)c3c[nH]cc(-c4ccc(Cl)cc4)c3=O)ccc2/C1=C/c1ccc[nH]1
[A] > 300 °C

[Q] Requested field: melting point. Item: COc1ccc(C(=O)NC(=O)Nc2ccc3c(c2)NC(=O)/C3=C\c2ccccn2)cc1
[A] 268 to 273 °C (dec.)

[Q] Requested field: melting point. Item: Cc1[nH]c(/C=C2\C(=O)Nc3cc(NC(=O)c4c[nH]cc(-c5ccc(F)cc5)c4=O)ccc32)c(C)c1CC(=O)N1CCN(C)CC1
[A] > 300 °C

[Q] Requested field: melting point. Item: O=C1Nc2cc(NC(=O)N3CCN(c4ccc(Cl)c(C(F)(F)F)c4)C3=O)ccc2/C1=C/c1ccc[nH]1
[A] > 300 °C

[Q] Requested field: melting point. Item: O=C(NC(=O)c1ccc(Cl)cc1)Nc1ccc2c(c1)NC(=O)/C2=C\c1ccc[nH]1
[A] 280 to 285 °C (dec.)

[Q] Requested field: melting point. Item: O=C1Nc2cc(NC(=O)N3CCN(c4cccc(Cl)c4)C3=O)ccc2/C1=C/c1ccc[nH]1
[A] > 300 °C

[Q] Requested field: melting point. Item: O=C1Nc2cc(NC(=O)N3CCN(c4ccc(Cl)c(Cl)c4)C3=O)ccc2/C1=C/c1ccc[nH]1
[A] > 300 °C

[Q] Requested field: melting point. Item: COc1ccc(C(=O)NC(=O)Nc2ccc3c(c2)NC(=O)/C3=C\c2[nH]c(C)c(C(=O)O)c2C)c(F)c1
[A] 295 to 300 °C (dec.)
